Target: T1, Tsal1 (Glossina morsitans morsitans, UniProt D3TS87 23-399)
T1 sequence: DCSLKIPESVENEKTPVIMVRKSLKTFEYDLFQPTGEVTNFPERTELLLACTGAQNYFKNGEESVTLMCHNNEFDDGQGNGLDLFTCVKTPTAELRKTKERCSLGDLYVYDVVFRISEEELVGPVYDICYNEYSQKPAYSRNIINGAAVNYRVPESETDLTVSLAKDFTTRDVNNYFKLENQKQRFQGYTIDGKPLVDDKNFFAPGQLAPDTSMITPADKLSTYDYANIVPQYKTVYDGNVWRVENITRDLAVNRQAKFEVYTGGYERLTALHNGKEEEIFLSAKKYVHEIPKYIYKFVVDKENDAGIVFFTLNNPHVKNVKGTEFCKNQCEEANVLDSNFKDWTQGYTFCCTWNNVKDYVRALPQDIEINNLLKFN
Assay: SPR; text: 1.03 nM; ka 1.0E+06, kd 1.0E-03; SPR (BIAcore), 50 mM sodium acetate pH 4.0, 150 mM NaCl, 3.5 mM EDTA, 0.005% Tween-20, 30 ul/min, Langmuir 1:1 fit; temperature not stated
Details: protein: recombinant; tags: pelB leader (pET22b), His tag implied by Ni-NTA; blunt
observable: pKd
Please report pKd as the negative decimal logarithm of the molar concentration, giving only the number.

Which pKd is reported for this binder? dsDNA 25bp polyA/T (dsDNA) DNA 1: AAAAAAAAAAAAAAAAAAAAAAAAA DNA 2: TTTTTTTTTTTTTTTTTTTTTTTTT
9.00
